Here the recorded protein stability index is given for each entry.
B1: NET1 (parent)
chain: RVRPLARVTSLANLISPVRNGAVR

Variants of: B1
assay_summary: protein stability index of a GFP-peptide fusion (GPS, HEK-293T) (PSI 1-6); higher = more stable;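 further: lentivirally expressed fusions sorted by FACS into six bins by GFP to DsRed ratio, PSI derived from sequencing read proportions per bin multiplied by bin number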
cond: c terminus: a fixed tail appended
Answer as a number with no unit attached.

T9L :: 2.09

protein stability index reported for this variant A12Q : 3.71

protein stability index reported for this variant I15K : 3.27

protein stability index reported for this variant P17N : 2.81

protein stability index reported for this variant L5C : 3.04

protein stability index reported for this variant I15H : 4.02
